Reference source: patent US11472838B2

Listed below: IC50 values for each entry.
# test system: FXIII (Homo sapiens (Human), UniProt P00488)
# Sequence (P00488 39-732): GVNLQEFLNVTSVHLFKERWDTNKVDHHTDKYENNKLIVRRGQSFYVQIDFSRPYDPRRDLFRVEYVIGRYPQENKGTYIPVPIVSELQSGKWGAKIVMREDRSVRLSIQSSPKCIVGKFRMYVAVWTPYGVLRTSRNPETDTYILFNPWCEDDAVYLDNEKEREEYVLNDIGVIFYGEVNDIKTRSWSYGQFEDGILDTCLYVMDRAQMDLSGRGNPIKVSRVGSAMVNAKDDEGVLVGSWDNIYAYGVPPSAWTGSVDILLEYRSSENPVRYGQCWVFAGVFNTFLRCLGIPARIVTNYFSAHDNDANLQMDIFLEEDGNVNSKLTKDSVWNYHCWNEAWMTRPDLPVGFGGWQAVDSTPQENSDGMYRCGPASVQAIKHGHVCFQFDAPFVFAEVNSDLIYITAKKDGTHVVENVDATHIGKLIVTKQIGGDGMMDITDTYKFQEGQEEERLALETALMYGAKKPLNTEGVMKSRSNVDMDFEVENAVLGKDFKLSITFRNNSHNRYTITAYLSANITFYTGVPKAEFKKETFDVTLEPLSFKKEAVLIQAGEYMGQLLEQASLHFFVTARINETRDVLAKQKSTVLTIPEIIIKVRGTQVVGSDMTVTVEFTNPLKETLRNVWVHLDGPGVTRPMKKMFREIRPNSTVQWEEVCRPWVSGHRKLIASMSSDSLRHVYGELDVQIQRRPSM
# test method notes: Inhibitory activity against FXIII (isopeptidase assay), Tables 3 and 4;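 note: FXIIIa activity read with a peptide substrate derived from the α2-antiplasmin N-terminal dodecapeptide, FXIII activated beforehand at room temperature, inhibitor-free wells with DMSO buffer as control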
# Format: biochemical
# test parameters: Table 4; read-out: FXIII IC50
*1 amine or outer side, *2 acyl side, *3 side chain or, on linkers, in order; H or OH if unused. Where a SMILES comes first, the peptide text is derived from it. [ ]: non-standard residue; d: D form. The star is where a group is joined. ξ: configuration not given here. Benzoyl(3-COOH,5-NO2) = O=C(O)c1cc(C(=O)*)cc([N+](=O)[O-])c1; Nle(5E-ene,6-CO2Et) = CCOC(=O)/C=C/CC[C@H](N)C(=O)O; X1 = COC(=O)/C=C/CC[C@H](N[*:1])C(=O)[*:2]; Pro(4-oxo) = O=C1CN[C@H](C(=O)O)C1; Thr(3ξ) = CC(O)[C@H](N)C(=O)O; Chg = N[C@H](C(=O)O)C1CCCCC1; Tle = CC(C)(C)[C@H](N)C(=O)O; Nle = CCCC[C@H](N)C(=O)O; NHIsopentyl = CC(C)CCN*; ξV = CC(C)C(N)C(=O)O; Alloc = C=CCOC(=O)*

Query C=CCOC(=O)NCCCC[C@H](NC(=O)[C@H](CC(C)C)NC(=O)[C@H](CC(C)C)NC(=O)[C@@H](NC(=O)[C@H](CC(C)C)NC(=O)[C@@H]1CCCN1C(=O)[C@H](CO)NC(=O)C(NC(=O)[C@H](CCC(N)=O)NC(=O)[C@H](CCC(=O)O)NC(=O)[C@H](CC/C=C/C(=O)OC)NC(=O)[C@H](CC(N)=O)NC(C)=O)C(C)C)C(C)O)C(=O)O (stereo partly drawn) [Ref. 24, reference compound] (Ac-N[X1]EQ[ξV]SPL[Thr(3ξ)]LLK(Alloc)-OH) yields IC50 of 306 nM

Query CCOC(=O)/C=C/CC[C@H](NC(=O)c1cc(C(=O)O)cc([N+](=O)[O-])c1)C(=O)N[C@H](C(=O)N1CC(=O)C[C@H]1C(=O)N[C@H](C(=O)NCCC(C)C)C1CCCCC1)C(C)(C)C [Compound 40] ({Benzoyl(3-COOH,5-NO2)}-[Nle(5E-ene,6-CO2Et)][Tle][Pro(4-oxo)][Chg]-NHIsopentyl) yields IC50 of 81 nM

Query CCCC[C@H](NC(=O)[C@H](CC/C=C/C(=O)OC)NC(=O)[C@@H](CC(=O)O)NC(C)=O)C(=O)N[C@@H](CCCC)C(=O)N[C@@H](CC(C)C)C(=O)N1CCC[C@H]1C(=O)O [Ref. 14, reference compound] (Ac-[dD][X1][Nle][Nle]LP-OH) yields IC50 of > 10 nM

----------
# test system: TG2 (Homo sapiens (Human), UniProt P21980)
# Sequence (P21980 whole entry): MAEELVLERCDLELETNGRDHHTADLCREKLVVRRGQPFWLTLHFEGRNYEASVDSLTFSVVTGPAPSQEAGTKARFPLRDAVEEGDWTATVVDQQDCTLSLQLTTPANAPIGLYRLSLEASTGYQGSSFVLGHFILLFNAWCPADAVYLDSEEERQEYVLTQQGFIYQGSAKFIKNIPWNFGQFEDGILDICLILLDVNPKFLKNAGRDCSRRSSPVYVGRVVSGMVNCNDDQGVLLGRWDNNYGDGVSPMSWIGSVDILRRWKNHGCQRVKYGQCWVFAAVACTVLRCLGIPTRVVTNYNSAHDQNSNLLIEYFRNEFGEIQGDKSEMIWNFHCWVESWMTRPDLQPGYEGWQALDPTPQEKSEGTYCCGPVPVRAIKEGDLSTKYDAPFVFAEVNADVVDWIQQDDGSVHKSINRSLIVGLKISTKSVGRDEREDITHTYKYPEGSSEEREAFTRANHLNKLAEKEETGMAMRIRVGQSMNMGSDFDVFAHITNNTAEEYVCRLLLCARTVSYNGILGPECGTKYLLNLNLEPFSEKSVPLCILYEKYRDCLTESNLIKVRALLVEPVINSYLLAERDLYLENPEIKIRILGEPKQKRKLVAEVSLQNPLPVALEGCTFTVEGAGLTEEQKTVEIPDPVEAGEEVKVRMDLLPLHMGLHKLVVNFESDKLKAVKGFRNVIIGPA
# test method notes: Inhibitory activity against TG2 (isopeptidase assay), Tables 3 and 4
# Format: biochemical
# test parameters: Table 4; read-out: TG2 IC50
*1 amine or outer side, *2 acyl side, *3 side chain or, on linkers, in order; H or OH if unused. Where a SMILES comes first, the peptide text is derived from it. [ ]: non-standard residue; d: D form. ξ: configuration not given here. X1 = COC(=O)/C=C/CC[C@H](N[*:1])C(=O)[*:2]; Thr(3ξ) = CC(O)[C@H](N)C(=O)O
test readout: IC50 (nM)
Your answer is read as nM, so omit the unit and give the number.

Query COC(=O)/C=C/CC[C@H](NC(=O)[C@H](CC(N)=O)NC(C)=O)C(=O)N[C@@H](CCC(=O)O)C(=O)N[C@@H](CCC(N)=O)C(=O)N[C@H](C(=O)N[C@@H](CO)C(=O)N1CCC[C@H]1C(=O)N[C@@H](CC(C)C)C(=O)N[C@H](C(=O)N[C@@H](CC(C)C)C(=O)N[C@@H](CC(C)C)C(=O)O)C(C)O)C(C)C (stereo partly shown) [Ref. 18, reference compound] (Ac-N[X1]EQVSPL[Thr(3ξ)]LL-OH) yields IC50 of 341
